# Test system: T1, hPD-L1-His (human, UniProt Q9NZQ7 19-238)
# T1 construct: Bought protein; also called hPD-L1-His (manufactured by Edison); not shown: His tag
# T1 sequence (Q9NZQ7 19-238 limits assumed): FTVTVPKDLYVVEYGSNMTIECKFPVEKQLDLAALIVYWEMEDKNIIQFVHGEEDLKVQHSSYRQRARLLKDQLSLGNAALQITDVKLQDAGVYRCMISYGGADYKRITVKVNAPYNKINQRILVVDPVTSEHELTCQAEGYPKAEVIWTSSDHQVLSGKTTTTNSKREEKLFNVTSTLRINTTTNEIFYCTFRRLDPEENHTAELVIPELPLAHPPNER
# Experiment notes: SPR (Biacore T200), antibody on Protein A chip, hPD-L1-His injected, 1:1 fit
Quick rule: koff of at least 0.001 s⁻¹ means 1, below that means -1.

Ask: Please indicate if the recorded koff for 3F2-H2K2-IgG1 (antibody, V domains shown) VH: DVQLQESGPGLVKPSETLSLTCTVSGYSITSGYNWHWIRQFPGNGLEWMGYIHHSSITNYNPSLKSRITISRDTSKNQFSLKLSSVTAADTATFYCAREGYDYDWFAYWGQGTLVTVSS VL: DIVLTQSPDFQSVTPKEKVTLSCRASQSISNNLHWYQQKPDESPKLLIKYASQSISGIPSRFSGSGSGTDFTLTINSVEAEDFAMYFCQQSKSWPFTFGQGTRLEIK meets or exceeds 0.001 s⁻¹.
Reply: -1

Ask: Please indicate if the recorded koff for 3F2-H3K3-IgG1 (antibody, V domains shown) VH: DVQLQESGPGLVKPSETLSLTCTVSGYSITSGYNWHWIRQFPGNGLEWMGYIHHSSITNYNPSLKSRITISRDTSKNQFSLKLSSVTAEDTATFYCAREGYDYDWFAYWGQGTLVTVSS VL: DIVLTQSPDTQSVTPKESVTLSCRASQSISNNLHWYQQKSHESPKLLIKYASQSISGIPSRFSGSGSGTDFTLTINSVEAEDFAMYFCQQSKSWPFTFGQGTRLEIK meets or exceeds 0.001 s⁻¹.
Reply: -1

Ask: Please indicate if the recorded koff for 3F2-H4K1-IgG1 (antibody, V domains shown) VH: DVQLQESGPGLVKPSETLSLTCTVSGYSITSGYNWHWIRQFPGNKLEWMGYIHHSSITNYNPSLKSRITISRDTSKNQFFLQLSSVTAEDTATFYCAREGYDYDWFAYWGQGTLVTVSS VL: DIVLTQSPDFQSVTPKEKVTITCRASQSISNNLHWYQQKPDESPKLLIKYASQSISGIPSRFSGSGSGTDFTLTINSVEAEDFAMYFCQQSKSWPFTFGQGTRLEIK meets or exceeds 0.001 s⁻¹.
Reply: -1

Ask: Please indicate if the recorded koff for 08-3F2-mHvKv-IgG1 (antibody, V domains shown) VH: DVQLQESGPDLVKPSQTLSLTCTVTGYSITSGYNWHWIRQFPGNKLEWMGYIHHSSITNYNPSLKSRISITRDTSKNQFFLQLSSVTTEDTATFYCAREGYDYDWFAYWGQGTLVTVSA VL: DIVLAQSPATLSVTPGDSVSLSCRASQSISNNLHWYQQKSHESPRLLIKYASQSISGIPSRFSGSGSGTDFTLSINSVETEDFGMYFCQQSKSWPFTFGSGTRLEIK meets or exceeds 0.001 s⁻¹.
Reply: -1

Ask: Please indicate if the recorded koff for 6A11-H4K3-IgG1 (antibody, V domains shown) VH: EVQLVESGGGLVQPGGSRRLSCAASGFTFSSFGMHWVRQAPGKGLEWVAYISSGSNTIYYADTVKGRFTISRDNPKNSLYLQMNSLRAEDTAIYYCTRNGYDGWYAMDYWGQGTTVTVSS VL: EIVLTQSPATLSASPGERATLSCSASSSVSYIHWFQQKPGQSPRRWIYDTSKLASGIPARFSGSGSGTDYTLTISSMEPEDFATYYCQQWSTNPFTFGQGTKLEIKR meets or exceeds 0.001 s⁻¹.
Reply: 1

Ask: Please indicate if the recorded koff for 7E4-H3K2-IgG1 (antibody, V domains shown) VH: QVQLVQSGAEVVKPGASVKISCKGSGFKFTDYAIHWVRQAPGKSLEWMGVISIYYGEASYNQKFKDKVTLTVDTSASTAYMELSSLRSEDTAIYYCAREDYYGSSSYFDYWGQGTLLTVSS VL: DNVLTQSPSFLSASVGDRVTMTCSASSSVSSSYLHWYQQKPGASPKPLIHRTSNLASGVPSRFSGSGSGTEFTLTISSLQPEDFATYYCQQWSGYPYTFGGGTKLEIK meets or exceeds 0.001 s⁻¹.
Reply: 1

Ask: Please indicate if the recorded koff for 6A11-H2K3-IgG1 (antibody, V domains shown) VH: EVQLVESGGGLVQPGGSLRLSCAASGFTFSSFGMHWVRQAPGKGLEWVSYISSGSNTIYYADTVKGRFTISRDNAKNSLYLQMNSLRAEDTAVYYCTRNGYDGWYAMDYWGQGTTVTVSS VL: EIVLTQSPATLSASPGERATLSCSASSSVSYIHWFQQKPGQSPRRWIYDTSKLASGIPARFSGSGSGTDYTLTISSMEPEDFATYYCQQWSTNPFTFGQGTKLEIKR meets or exceeds 0.001 s⁻¹.
Reply: 1

Ask: Please indicate if the recorded koff for 3F2-H3K2-IgG1 (antibody, V domains shown) VH: DVQLQESGPGLVKPSETLSLTCTVSGYSITSGYNWHWIRQFPGNGLEWMGYIHHSSITNYNPSLKSRITISRDTSKNQFSLKLSSVTAEDTATFYCAREGYDYDWFAYWGQGTLVTVSS VL: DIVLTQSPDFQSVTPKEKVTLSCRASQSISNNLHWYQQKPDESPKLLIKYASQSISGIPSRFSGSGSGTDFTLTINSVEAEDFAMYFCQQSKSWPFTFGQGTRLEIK meets or exceeds 0.001 s⁻¹.
Reply: -1

Ask: Please indicate if the recorded koff for 3F2-H2K1-IgG1 (antibody, V domains shown) VH: DVQLQESGPGLVKPSETLSLTCTVSGYSITSGYNWHWIRQFPGNGLEWMGYIHHSSITNYNPSLKSRITISRDTSKNQFSLKLSSVTAADTATFYCAREGYDYDWFAYWGQGTLVTVSS VL: DIVLTQSPDFQSVTPKEKVTITCRASQSISNNLHWYQQKPDESPKLLIKYASQSISGIPSRFSGSGSGTDFTLTINSVEAEDFAMYFCQQSKSWPFTFGQGTRLEIK meets or exceeds 0.001 s⁻¹.
Reply: -1

Ask: Please indicate if the recorded koff for 7E4-H2K3-IgG1 (antibody, V domains shown) VH: QVQLVQSGAEVKKPGASVKVSCKASGFKFTDYAIHWVRQAPGKSLEWMGVISIYYGEASYNQKFKDRVTLTVDTSASTAYMELSSLRSEDTAVYYCAREDYYGSSSYFDYWGQGTLVTVSS VL: ENVLTQSPSFLSASVGDRVTMTCSASSSVSSSYLHWYQQKSGASPKPLIHRTSNLASGVPSRFSGSGSGTEYTLTISSVQPEDFATYYCQQWSGYPYTFGGGTKLEIK meets or exceeds 0.001 s⁻¹.
Reply: 1
